Hey, just so you know, these numbers are from the supplement of paper PMC9170038.

System: MS2 coat protein
Assay: apparent KD of MS2 coat protein; designed switch direction (-1 OFF switch, 1 ON switch): -1; higher = weaker reporter binding
Conditions: Eterna round: R95; input ligand: none
readout name: apparent KD of MS2 coat protein (nM)
# value in nM; strip the unit string

Exam item: Which measured apparent KD of MS2 coat protein value corresponds to AAGAAACAUGAGGAUCACCCAUGUGAGGAUAUGAAAAAGAAAAGAAAAGAAAGAAGACUCAGAAGGCACAAAGG [salish99-ex1_r3_022] (puzzle: Exclusion 1) ?
Marked response: 45.7

Exam item: Item: CGGUGCUGAGGAUAUACAUGAGGAUCACCCAUGUGUUCCAGCUAGGUGACUGGCGGAUGUAGAAGGCGGUACUG [JL-ex3-3.39 Brourd mod] (puzzle: Exclusion 3)
Marked response: 64.8

Exam item: What do you get for AGAAAGCAAGGAUAUACGAGGAGAAGGUGGAGAGUUAAAGGACAUGAGGAUCACCCAUGUAGAAGGUGCGAGAA [JR_Exclu2_Sub044] (puzzle: Exclusion 2) ?
Marked response: 72

====

Test system: MS2 coat protein
Experiment: apparent KD of MS2 coat protein; designed switch direction (-1 OFF switch, 1 ON switch): -1; higher = weaker reporter binding
Details: Eterna round: R95; input ligand: microRNA oligo, concentration not stated
Labels assigned by apparent KD of MS2 coat protein range: class A: < 20 nM; class B: ≥ 20 nM and < 40 nM; class C: ≥ 40 nM

Exam item: # bin lookup: classify GUGAAACAUGAGGAUCACCCAUGUGAGGAUAUGAUACUAUGUACUUCGGUACAUAGUAUCAGAAGGCACAGUGA [Ex1-3: 6] (puzzle: Exclusion 1) by its apparent KD of MS2 coat protein
Marked response: class C

Exam item: Moving on to the next sequence: CUUUUGUGAGGAUAUCAGUAGUAAAUAAAUAAAAUUAUUACUGAGAAGGCACAUGAGGAUCACCCAUGUUCCUC [salish99_ex3_r3_086] (puzzle: Exclusion 4)
Marked response: class B

Exam item: Could you do the same for AAACUCCUGACAACCAGGAACAUGAGGAUCACCCAUGUGGCGUGACUCAUACGGGCUUUUUGUUCGUUUUAUUCACG [Aleatxe] (puzzle: Sensor v3, turn-off variant 1) , please?
Marked response: class B

Exam item: What about UUUAAUUUUUUUUUUUUACAAGCUUUUUGCUCGUCUUAUACAUGAGGAUCACCCAUGUGGGUAAAGGGUAAAUUAUC [JMF 80] (puzzle: Sensor v3, turn-off variant 2) ?
Marked response: class C

Exam item: Repeat with AAUGAGCUAGGAUAUACAUGAGGAUCACCCAUGUAAAAUAGGUCAUGGAUGAACCACUGUAGAAGGAGCAGGGC [Ateseszave] (puzzle: Exclusion 3)
Marked response: class C

Exam item: Can you check AUAUACAAGCAAAGAUCCUACAUGAGGAUCACCCAUGUGUUCGUCUUAUAAAGUACUAUCACGAAAGUGAUAGUACA [Mat - Sensor v3 - turn-off var 1 - Eli Mod - D80] (puzzle: Sensor v3, turn-off variant 1) next?
Marked response: class A

Exam item: Request: AGUACUAACACGGAUGUGUUAGUACAAUAAGCUUGUGAAACAUGAGGAUCACCCAUGUCCUCAUAAGCUCGUCUUAU [salish99_TOv2_r3_067] (puzzle: Sensor v3, turn-off variant 2)
Marked response: class C

Exam item: // same read-out, input: CCGGAUAUGCAGGAUAUCGUAUCGGAGACGAUACGAGAAGGGUAUACAUGAGGAUCACCCAUGUGCCUUACCGG [Mat - Exclusion 6 - Eli Mod - D82] (puzzle: Exclusion 6)
Marked response: class A

Exam item: Can you handle CUUCACCCACCAGAGCUCACCCACAUACCUGCUCAGGUGACAUGAGGAUCACCCAUGUUUUUUGCCCGUCUUAUCUU [Atquertebi] (puzzle: Sensor v3, turn-off variant 2) next?
Marked response: class C

Exam item: // repeat for UAAGUGUGAGGAUAUGGUAAAGAUAAGAUGAUGAAAGAACUCCAGAAGGCACAUGAGGAUCACCCAUGUAGAUG [JL-ex4-2.11 Jieux mod] (puzzle: Exclusion 4) and report
Marked response: class B

Exam item: Similarly, CUCGGGAGUCAGGAUAUCGGCACAUAUCAAUCACGAGAAGGGACGACAUGAGGAUCACCCAUGUGGGAAAAGAA [Bivetilaza] (puzzle: Exclusion 6) ?
Marked response: class B

Exam item: Please give the result for CUAGUCCGAGGAUAUAUUAUGUGAAACAUGAGGAUCACCCAUGUAAUAUGAUGGAAAUAAAUAGAAGGCGGACUAG [Mat - Exclusion 5 - JL mod - D33] (puzzle: Exclusion 5) too.
Marked response: class B

Exam item: Next sequence up: ACAAGCUUUUUGCAAUUUAGUUUUGUUGCUUCGUAGGUAACAUGAGGAUCACCCAUGUAAGAGUGAUGUCGUCUUAU [JR_SV3TOV2_Sub084] (puzzle: Sensor v3, turn-off variant 2)
Marked response: class C

Exam item: Also AAUUACAAGCAAAGAUCCUACAUGAGGAUCACCCAUGUGCUCGUCUUAUAAAGUACUAUCACGAAAGUGAUAGUACA [Mat - Sensor v3 - turn-off var 1 - Eli Mod - D76] (puzzle: Sensor v3, turn-off variant 1) , if possible.
Marked response: class A

Exam item: Request: UACCGGCGGACCGAAGCUUUUUGCUUGUCUUAUACUACAACAUGAGGAUCACCCAUGUGGUGGUGGUCCGUUGUAGU [JL ViennaUCT Bitein mod 2] (puzzle: Sensor v3, turn-off variant 2)
Marked response: class A

Exam item: Same again, this time with AAGGAACGAGGAUAUGCAGGUUGAGCUCGAGUUCGACCGGAACAUGAGGAUCACCCAUGUAGAAGGUGUAUCCC [Vedibe] (puzzle: Exclusion 2)
Marked response: class B

Exam item: Note, next up: AAGAAACAUGAGGAUCACCCAUGUCAGGAUAUCUCGAAAAGCAUAGAAAUAUGCGAAGAGAGAAGGGACUAUCC [ChP Ext 10-04-2015 #3] (puzzle: Exclusion 1)
Marked response: class B

Exam item: Try ACGUAUAGAGGAUAUAGUGAAUAUUACAUGAGGAUCACCCAUGUUCUUCAAAGCAUAUUCCUAGAAGGCUAAUGAA [EX-5 Malc#12] (puzzle: Exclusion 5) next.
Marked response: class C

====

Answer each item with its documented apparent KD of K4 kissing-loop reporter.
Test system: K4 kissing-loop RNA reporter;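 also: bound reporter read as fluorescence of individual clusters on recovered sequencing chips by microscopy, with normalized cluster intensities fitted with a binding model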
Experiment: apparent KD of K4 kissing-loop reporter; higher = weaker reporter binding
Settings: Eterna round: R107; input ligand: tryptophan 2.4 mM
Give the quantity in nM, number only.

Exam item: State the recorded apparent KD of K4 kissing-loop reporter for this entry: UUUUAUAACCGAAGGAGCGCGUGGGCGCAGUGAUGUUGCGCCCGACAUCACUUCAACUUAACGCAGGUAGGUCGCGGUUUUAAUG [Arginine B (Excl) V3]
Marked response: 168

Exam item: Also need CCAUUCUGUUACGAUACCAGUCUAAUAUAUUUGAUCAAUACCCUCGCCGAGUGAUGUUCGGACCCUUGGCAGCGUCUGGGACAGG [bbybmullin] , thanks.
Marked response: 364

Exam item: Record: AGAGAUAUAUGAGGAUAUGAGUUAGUUAAUGAGUUAGUUUUAGUGUUGUUUGGUUAGUGAUGUUAUUUAGAAGGCGUGAGUGAUG [cxfsmullin]
Marked response: 60.8

Exam item: Next entry: UAGUCAUACAGAGGAUAUCGUAUGAGUGAUGUUCAUACGACAUAAUCAAAUUGUAUUGAUGUUCGACGAGAAGGCUGUAUGACUA [FMN B Ex t1]
Marked response: 124

Exam item: Subsequent entry: "GCCGUACGCAUGGAUACCAGCAAUAUGCUACGUUGUAGUAGUAUAACCAGUGAUGUUGGAUGCCCUUGGCAGCCAUGCGUACGGC"
Marked response: 855

Exam item: Same question for GGAUAGGACGGAGGAUAUGGUAGUGAUGUUACCAAACUGGUUAAACAUGUCAGAAAACUGGCAUGACCAGAAGGCUGUCCUAUCG [FmnBX 27 G10] please.
Marked response: 76.6

Exam item: And what about the sequence UGUCAUUGGUCUGAUACCAGCUUGAUCGGAAACGAUCUGCUGGAGUGAUGUUCCAAGUAAAGCCCUUGGCAGCAGACCGAUGACU [TheoBS 8 #SwitchBubble #StaticStem] ?
Marked response: 102

Exam item: And what about the sequence GUAGAUAGGCUACAUCUCUAGUCUAAAGACUAGGAUAUCAGGAAACUGAGAAGGAGUCUCAUUGGAGUGAUGUUCCAAGAAUAAU [KL-SSFMN-A16] ?
Marked response: 71.7

Exam item: Also need UUUGUAGUGGGAGGAUAUCCUAAUAUGGGUGAUGUUAGCGAUGUUGAAGGUGUAGUGAUGUUAUGCGGAGAAGGCCCACUGUAGA [BDazzled - #20 - Exc. FMN B] , thanks.
Marked response: 253

Exam item: Let us now turn to GACGUGCGAGAGACCGCUCUACCUUGAGAUCGAGGACCGGUACGGCCGCCACUCGGUGUUUAACGUCGAUCCCAGUGAUGUUGGA [theeternabot_sameState_KL_Trp_A_21]
Marked response: 234

Exam item: Proceed to AACCUACGAUCACAAUAGUGAUUGUAGGACUAGGAUAUGCUGAAAAGCAGAAGGAGUGAUGUUCCACUCAUGAAUAACAUGAGAA [FmnAX 4 #OpenEnded #K4Late #CoaxialStacking]
Marked response: 270

Exam item: Query UCCUGCAGUCUGCCACGAAAGUGGAUUGAUACCAGAGUCGAAAGACUCCCUUGGCAGCGAGUGAUGUUCGAAGCAGGUAAAUAAA [MatMod 1 - Jieux - Exclusion - Theophylline A] next
Marked response: 130

Exam item: Try this sequence too: GCGCGUCAUGUCAGCGGUGACUAUGUCGAUACCAGCAGGGAAACCUGCCCUUGGCAGCGACGCGCUGGAGUGAUGUUCCGACGGC [#2 Exclusion - Theophylline A Attempt #8 (HarryS)]
Marked response: 145

Exam item: How about this sequence: AUUUAGACGAGUGAUGUUCGUGAUUUUUCAGAGGAUAUGCGUAAUAGCAGAAGGCUGUAUUUAUAUAUAUUUUGAUUUUUUUAAA [JR_ExcFMNA_Sub009]
Marked response: 62.3

Exam item: Same question for GUAUGUGGAAACACGUACUUAUAUCCUAGGCAGGAUAUGCGGAAACGCAGAAGGGCCACCGGCGAGUUUAUCCAGUGAUGUUGGA [Ex FMN A 8] please.
Marked response: 245

Exam item: Next: UCACUCAUGUGAAGGAGCGUGAGAAGACAUGAGUGAUGUUCAUGUCUAGACCAGCGUCUCUCACAGGUAGGUCGCACAUGAAAGG [Arg B SS t10]
Marked response: 121

Exam item: What about CACCAUGAAUUCUCUAGGAGUGAUGUUUUUCGAGGACCGGUACGGCCGCCACUCGGACGAGGACCCUGGGAGCGGCGAAGCGGCU [nigmullin] ?
Marked response: 150

Exam item: For CGAGAAAGAGCGACUGGCGAUCUGUCUGAAGGAGCGGGUGCUAGCCCAGGUAGGUCGCAGACUUUGACGCCAGUGAUGUUGGCGG [Titidiisxe] then?
Marked response: 178

Exam item: # repeat for ACACUUUACGUAGGAUAUGCGACGAGUGAUGUUCGUCAGGCGGCUUGAGCUUAAACAGGCCGUCUAGCAGAAGGACGGGCAGUGU [Diorsodi]
Marked response: 168

Exam item: How about this sequence: AUUUUGUUGUCAGGAUAUUAGUAUGGUUUUGGUUUGUUAGUGAUGUUGAUGUUUUGUUUAUGUAUUUAAGAAGGGAUUUAGCGGU [aqaawgumullin]
Marked response: 343

Exam item: One more sequence: AAUUUUAAUCAUAAAUAAUAAAUAAAUGAUACCAGUAUUUUUUUUUACCCUUGGCAGCGUAUAUAAGGGCAGUGAUGUUGUCAGA [whbob_SS_Theo_A_w60]
Marked response: 164

Exam item: Also check AAAGACUGACUGCAAUUAGCAGUCAGUCAACGAGGACCGGUACGGCCGCCACUCGGGUCCUAGAGUGAUGUUCUAAUAAUAUAAA [AK1.2 SS Tryptophan A]
Marked response: 207

Exam item: Also, UCGAUAGAGAGUGAUGUUCUCGUAUCAGAUACCAGUCACGCGAGUGACCCUUGGCAGCUGAUGUACAGCUGAGAGUAGUAUUCGA [Theo A Ex t8] please.
Marked response: 89.6
